Here the recorded protein stability index is given for each entry.
B1: COX4I1 (parent)
chain: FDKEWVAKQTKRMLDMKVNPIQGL

variants of: B1; assay: protein stability index of a GFP-peptide fusion (GPS, HEK-293T) (PSI 1-6); higher = more stable; settings: c terminus: a fixed tail appended;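 note: lentivirally expressed fusions sorted by FACS into six bins by GFP to DsRed ratio, PSI derived from sequencing read proportions per bin multiplied by bin number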
Please give only the number in your answer, with no unit.

V18K 1.19
M16Y 1.75
A7T 1.76
R12W 1.65
M16D 1.97

Prompt line: I would be grateful if you could share the reported protein stability index for `Q22V` .
Response line: 2.58

Prompt line: I would be grateful if you could share the reported protein stability index for `D2N` .
Response line: 2.57
